From: the Kinase Knowledgebase extract (Sharma et al. 2016)

biological target: CDK2 (human) (UniProt P24941); experiment: Cell-Based Assay; details: sw480
attribute measured: IC50

Examples with answers:
Cc1[nH]nc2c1N=C(c1ccccc1F)c1cc(Cl)ccc1N2: 1.1 to 9.99 µM
Cc1[nH]nc2c1N=C(c1ccccc1F)c1ccccc1N2: 0.01 to 1 µM
Cc1[nH]nc2c1N=C(c1ccccc1F)c1cc(C(=O)NCCN3CCOCC3)ccc1N2: 0.01 to 1 µM
O=[N+]([O-])c1ccc2c(c1)C(c1ccccc1Cl)=Nc1c(n[nH]c1CO)N2: 0.01 to 1 µM
Nc1ccc2c(c1)C(c1ccccc1Cl)=Nc1c[nH]nc1N2: 10 to 30 µM

## Task Returns the measured IC50 for the input compound. Input: Cc1[nH]nc2c1N=C(c1ccccc1)c1cc(I)ccc1N2
## Result 10 to 30 µM

## Task Could you do the same for O=[N+]([O-])c1ccc2c(c1)C(c1ccccc1Cl)=Nc1c(n[nH]c1-c1ccccc1C(F)(F)F)N2 , please?
## Result 10 to 30 µM

## Task Queued: Cc1[nH]nc2c1N=C(c1ccccc1Cl)c1cc(N)ccc1N2
## Result 0.01 to 1 µM

## Task Likewise for O=[N+]([O-])c1ccc2c(c1)C(c1ccccc1Cl)=Nc1c(n[nH]c1-c1ccccc1)N2 ?
## Result 10 to 30 µM

## Task And O=[N+]([O-])c1ccc2c(c1)C(c1ccccc1Cl)=Nc1c[nH]nc1N2 ?
## Result 1.1 to 9.99 µM

* * *

// reported pIC50 per item
biological target: CDK2 (UniProt P24941)
pIC50: −log10 of the molar value.

## Task Look at this compound and give its reported pIC50. O=[N+]([O-])c1ccc2c(c1)C(c1ccccc1Cl)=Nc1c(n[nH]c1-c1ccc(-n3cccc3)cc1)N2
## Result 4.52 to 5.00

## Task Entry O=[N+]([O-])c1ccc2c(c1)C(c1ccccc1)=Nc1c(n[nH]c1-c1ccc3c(c1)OCCO3)N2 please
## Result 4.52 to 5.00

## Task Likewise for Cc1ccc(-c2[nH]nc3c2N=C(c2ccccc2Cl)c2cc([N+](=O)[O-])ccc2N3)cc1 ?
## Result 5.00 to 6.00

* * *

target: CDK2 (UniProt P24941)
attribute measured: IC50

CCc1ccc(-c2[nH]nc3c2N=C(c2ccccc2Cl)c2cc([N+](=O)[O-])ccc2N3)o1: 1 to 9.99 µM
Nc1ccc2c(c1)C(c1ccccc1Cl)=Nc1c[nH]nc1N2: 1 to 9.99 µM

## Task Consider the compound O=[N+]([O-])c1ccc2c(c1)C(c1ccccc1)=Nc1c(n[nH]c1-c1cccnc1)N2 and give its measured IC50.
## Result 1 to 9.99 µM

## Task Try the compound CCOC(=O)c1[nH]nc2c1N=C(c1ccccc1Cl)c1cc([N+](=O)[O-])ccc1N2
## Result 1 to 9.99 µM

## Task Likewise for O=[N+]([O-])c1ccc2c(c1)C(c1ccccc1Cl)=Nc1c(n[nH]c1CCc1ccccc1)N2 ?
## Result 1 to 9.99 µM

## Task Please do the same for Clc1ccc2c(c1)C(c1ccccc1)=Nc1c[nH]nc1N2 as well.
## Result 1 to 9.99 µM

## Task Also check COc1ccccc1-c1[nH]nc2c1N=C(c1ccccc1Cl)c1cc([N+](=O)[O-])ccc1N2
## Result 10 to 30 µM

## Task Next up: O=[N+]([O-])c1ccc2c(c1)C(c1ccccc1Cl)=Nc1c(n[nH]c1-c1cccc(C(F)(F)F)c1)N2
## Result 10 to 30 µM
